EXPERIMENTAL_TARGET: PD-1/PD-L1 (Homo sapiens, UniProt Q9NZQ7)
Construct: Recombinant human PD-L1 protein (19-238) with a His-tag at the C-terminus; PD1-H5257 (PD-1)
Sequence (Q9NZQ7 19-238): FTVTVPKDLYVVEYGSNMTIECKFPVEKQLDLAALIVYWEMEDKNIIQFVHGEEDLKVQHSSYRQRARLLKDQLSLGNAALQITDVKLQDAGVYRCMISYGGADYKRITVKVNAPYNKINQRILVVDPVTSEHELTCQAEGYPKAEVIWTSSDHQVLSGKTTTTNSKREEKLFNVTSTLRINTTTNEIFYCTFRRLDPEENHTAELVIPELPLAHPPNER
ASSAY_TEXT: PD-1/PD-L1 Homogeneous Time-Resolved Fluorescence (HTRF) binding assay
TEST_PARAMETERS: recombinant human PD-L1 (19-238)-His 10 nM, human PD-1 (25-167)-Fc 3 nM, 25° C., PBS pH 7.4
Experimental: Example A. PD-1/PD-L1 Homogeneous Time-Resolved Fluorescence (HTRF) Binding Assay The assays were conducted in a standard black 384-well polystyrene plate with a final volume of 20 μL. Inhibitors were first serially diluted in DMSO and then added to the plate wells before the addition of other reaction components. […] After centrifugation, the plate was incubated at 25° C. for 60 min. before reading on a PHERAstar FS plate reader (665 nm/620 nm ratio). […]
// reported IC50 for each item listed

These recorded examples may help you get a feel for the data.
{"COMPOUND": "Cc1c(-c2ccccc2)cccc1-c1cnc2c(c1)CNCC2", "ENDPOINT": "IC50", "OBSERVED_MEASUREMENT": "100 to 1000 nM"}
{"COMPOUND": "N#Cc1c(-c2ccccc2)csc1Nc1nccc2cc(CNCCO)cnc12", "ENDPOINT": "IC50", "OBSERVED_MEASUREMENT": "100 to 1000 nM"}
{"COMPOUND": "Cc1c(NC(=O)c2cccn3c(CN4CCCC[C@H]4C(=O)O)cnc23)cccc1-c1ccccc1", "ENDPOINT": "IC50", "OBSERVED_MEASUREMENT": "100 to 1000 nM"}

Item: `NCc1ccc(-c2cccc(-c3ccccc3)c2Cl)cn1` | System: PD-1/PD-L1 (Homo sapiens, UniProt Q9NZQ7) | IC50: 10 to 100 nM

Assay PD-1/PD-L1 (Homo sapiens, UniProt Q9NZQ7), sample `OCCNCc1ccc(CN2CCc3c(-c4ccccc4)cccc32)c(Cl)c1` , IC50 read: 100 to 1000 nM

The measured IC50 that Cc1cc(CN2CCCC[C@H]2C(=O)O)ccc1OC1CCc2c(-c3ccccc3)cccc21 (stereo partly shown) showed for PD-1/PD-L1 (Homo sapiens, UniProt Q9NZQ7) is 100 to 1000 nM

Values compiled from patent US20230226062A1.
